Recorded CLint scaled for the following compounds
Assay protocol: Apparent intrinsic clearance in human liver microsomes
Type: ADME, Microsome
Condition notes: read-out: CLH(app)
Value expressed in mL/min/kg; do not type the unit.

Study these solved cases before continuing.
Compound	CLint scaled, mL/min/kg
C[C@@]12COCCN1c1nc(-c3cnc4[nH]ccc4c3)ncc1N(C1CCN(S(C)(=O)=O)CC1)C2=O	6
Cc1ccc(-c2ncc3c(n2)N2CCOC[C@@]2(C)C(=O)N3[C@H]2CC[C@H](O)CC2)c2cc[nH]c12	6
C[C@@]12COCCN1c1nc(-c3cnc4[nH]ccc4c3)ncc1N(C1(CCO)CC1)C2=O	11

Now examine the next entry.
Ask: Bench note: what CLint scaled did C[C@@]12COCCN1c1nc(-c3cnc4[nH]ccc4c3)ncc1N(C1CCOC1)C2=O (mixture of isomers) show?
Reply: 12
